These measurements were taken from the RNAGym collection of RNA variant scans (doi:10.1073/pnas.2313332121).

B1: TPR t1 (parent)
chain: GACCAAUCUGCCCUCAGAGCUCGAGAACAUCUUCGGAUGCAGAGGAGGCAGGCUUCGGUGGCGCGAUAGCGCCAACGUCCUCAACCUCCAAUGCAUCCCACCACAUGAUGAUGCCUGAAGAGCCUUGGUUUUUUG

Variants of: B1
Experimental Protocol: polymerase ribozyme fitness, log enrichment relative to wild type (log ratio); higher = more active; in vitro selection for triplet polymerase activity
Short version: polymerase ribozyme fitness (log ratio) at least -3 is T, less is F.

Past entries and their recorded results:
{"Variant Spec": "U54C C97G C123U", "Cat": "T"}
{"Variant Spec": "G45U C56G C73A U116C", "Cat": "F"}
{"Variant Spec": "C102U A121U", "Cat": "T"}
{"Variant Spec": "C22G C64U", "Cat": "T"}
{"Variant Spec": "C12A C70G", "Cat": "T"}
{"Variant Spec": "G47C G77U U116G", "Cat": "F"}
{"Variant Spec": "A2G G52U A91U A95C", "Cat": "F"}
{"Variant Spec": "C40G", "Cat": "T"}
{"Variant Spec": "C85U A95U C115A G120C", "Cat": "T"}
{"Variant Spec": "C79U C104A", "Cat": "T"}

Enquiry: Assess whether reported polymerase ribozyme fitness (log ratio) for C28U A43G G113A sits at -3 or higher.
Return: F

Enquiry: Assess whether reported polymerase ribozyme fitness (log ratio) for C115A G128A U130C sits at -3 or higher.
Return: T

Enquiry: Assess whether reported polymerase ribozyme fitness (log ratio) for C70A A100U sits at -3 or higher.
Return: T

Enquiry: Assess whether reported polymerase ribozyme fitness (log ratio) for G44C C49U C114U sits at -3 or higher.
Return: F

Enquiry: Assess whether reported polymerase ribozyme fitness (log ratio) for A5G C53A G61A C101U sits at -3 or higher.
Return: T

Enquiry: Assess whether reported polymerase ribozyme fitness (log ratio) for C20U C70U sits at -3 or higher.
Return: T

Enquiry: Assess whether reported polymerase ribozyme fitness (log ratio) for G93A A95U C102A sits at -3 or higher.
Return: F

Enquiry: Assess whether reported polymerase ribozyme fitness (log ratio) for C8G C11U G120A sits at -3 or higher.
Return: T
